Give condition met when the value for melting point is at least 100 °C. Give condition not met when it is less.

Please review the entries below; each comes with its answer.
C[C@H]1/C(=C\C(=O)OCCN(C)C)CC[C@H]2[C@H]1C(=O)C[C@H]1C(C)(C)[C@@H](O)CC[C@]21C
condition met
Brc1cc(Br)c(Br)cc1Br
condition met
CC(=O)OC1CCCCC1
condition not met
C1=CCCCCCC1
condition not met
CN(C)c1ccncc1
condition met

query: Answer whether melting point of Brc1ccc2c(c1)Cc1ccccc1-2 is greater than or equal to 100 °C.
result: condition met

query: Evaluate Cc1cc(C(=O)O)ccc1N : melting point at minimum 100 °C?
result: condition met
